Measured melting point values are reported for all entries that follow.
reported-property: melting point (°C)

1. COc1ccc(C(=O)O)cc1[N+](=O)[O-] : 188
2. COc1ccc(C(=O)c2ccc(OC)cc2OC)cc1 : 72
3. C(#Cc1ccccc1)c1ccccc1 [diphenylacetylene] : 60
4. Cc1cc(C)c(Br)cc1C : 72
5. O=C(O)c1cc(Cl)ccc1Cl : 156
6. Cc1ccc(N)c(C)c1 : -15
7. O=C(O)c1cc([N+](=O)[O-])cc([N+](=O)[O-])c1O : 171
8. Cc1ccc(F)c(C=O)c1Cl : 27
9. OC1[C@H]2CC[C@@H]1[C@H]1C=C[C@@H]2O1 (stereo partly drawn) [(1R,2S,5R,6S)-9-oxatricyclo[4.2.1.1~2,5~]dec-7-en-10-ol] : 122
